Kindly supply the reported composite z-score values for the records listed here.
Test system: Plasmodium falciparum Sir2 (PF13_0152, Sir2A)
Assay: pfSir2 binders on small-molecule microarrays, primary screen, biochemical, small-molecule microarray, 635 nm fluorescence (AID 1098);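 note: score merges spot fluorescence intensity with its signal-to-noise ratio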
Conditions: small-molecule microarray binding, fluorescence 635 nm; higher = more signal
Give the figure by itself; no unit, no explanation.

Sure, the documented composite z-score for "O=C1C=CC(=O)[C@@H]2CC(COc3ccccc3)=C3[C@@H](CCc4ccccc4)OB(O)C[C@@H]3[C@H]12" is 0.403

Consider "CC(C)CNC(=O)[C@@]1(c2ccc([N+](=O)[O-])cc2)CC(=O)N(CC23CC4CC(CC(C4)C2)C3)[C@@H]1c1ccc(CO)cc1I" . Its measured composite z-score is 1.13

// "COCCOC(=O)N1C(=O)[C@@]2(c3cc(C#CC4(O)CCCCCC4)ccc31)[C@H](C(=O)N1CCCCCCC1)[C@H]1C(=O)O[C@H](c3ccccc3)[C@H](c3ccccc3)N1[C@@H]2c1ccccc1OCCO" : composite z-score value = 1.6

Per the records, this molecule ( "COCCOC(=O)N1C(=O)[C@@]2(c3cc(C#CCNC(N)=O)ccc31)[C@H](c1ccc(O)cc1)N1[C@H](c3ccccc3)[C@H](c3ccccc3)OC(=O)[C@H]1[C@@H]2C(=O)NC[C@H](O)c1ccccc1" ) has composite z-score equal to 0.193

// "Cc1ccc(S[C@]2(C(=O)NCc3ccccc3)CC(=O)N(Cc3ccccc3)[C@@H]2c2ccc(CO)cc2)cc1" : composite z-score value = 0.979

GET /value?item= COc1ccc(C(O)C2C=CC3C(=O)N(c4ccccc4)C(=O)C3N2Nc2ccc([N+](=O)[O-])cc2)cc1OCc1ccccc1 (stereo not given) &field=composite z-score returns 1.4

"COC(=O)c1c(CC[C@@H](CO)NC(=O)N[C@@H](Cc2ccccc2)Cn2cc(C3(O)CCCCC3)nn2)oc(C(C)=O)c1C(=O)OC" yielded composite z-score of 0.893

# composite z-score of "C[C@]1(C(=O)NCc2ccccc2)c2ccccc2C(=O)N(Cc2cc(F)cc(C(F)(F)F)c2)[C@H]1c1ccc(CO)cc1" = 0.876

Sure, the documented composite z-score for "CCOC(=O)C[C@H]1[C@H](OC(=O)c2ccc(C(=O)c3ccccc3)cc2)[C@@H](NC(=O)C2CCCCC2)c2cc(OCCCO)ccc2N1C(=O)c1ccccc1" is 0.348

Briefly, composite z-score measured for "C=CCNC(=O)[C@@H]1[C@H]2C(=O)O[C@H](c3ccccc3)[C@H](c3ccccc3)N2[C@H](c2ccc(OCCO)cc2)[C@@]12C(=O)Nc1ccccc12" : 1.06

====

Assay: basal RPMI8226 viability, no added stimulus, profiling panel, cell-based, calcein-AM fluorescence, 48 h, PK04 Diversity Set (AID 1166);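 note: cells grown under basal conditions without added stimulus; test concentration not given here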
Conditions: RPMI8226 myeloma viability, higher = more signal
measurement.label: z-score

Consider "CCOC(=O)C1=C[C@@H](CC)N(S(=O)(=O)c2ccc(C)cc2)[C@H]1c1ccccc1" . Its measured z-score is -1.37

CC(=O)C1=CCC(c2ccccc2)N(S(=O)(=O)c2ccc(C)cc2)C1 (configuration not stated) yielded z-score of -1.08

Lab book: z-score of CC(C)c1ccc(NN2C(C(O)c3cccc(O)c3)C=CC3C(=O)N(c4ccccc4)C(=O)C32)cc1 (configuration not stated) noted as -0.237

get_value(item= "O=C1O[C@@H](c2ccccc2)[C@@H](c2ccccc2)N2[C@@H](c3ccc(OCCO)cc3)[C@]3(C(=O)Nc4ccc(C#CC5=CCCCC5)cc43)[C@@H](C(=O)O)[C@H]12" , readout=z-score) returns -4.57

Entry under test: "O=C(O)[C@H]1C[C@H]2C(=O)NCC(=O)N2[C@H]1c1ccc(O)cc1" . Its z-score was -0.593

// recorded z-score for "CCOC(=O)[C@H]1C/C=C/C[C@H](C(=O)OCC)C(=O)O[C@H]2[C@@H](OC)O[C@H](CO)[C@@H](OC(=O)Nc3ccc4c(c3)OCO4)[C@@H]2OC1=O" : -4.14

Measured z-score of "COCCOC(=O)N1C(=O)[C@@]2(c3cc(C#CCC(C(=O)OC)C(=O)OC)ccc31)[C@H](C(=O)N1CCN(c3ncccn3)CC1)[C@H]1C(=O)O[C@H](c3ccccc3)[C@H](c3ccccc3)N1[C@@H]2c1ccc(OCCO)cc1" : 1.21

Source of measurements: PubChem BioAssay
